Test system: Rattus norvegicus
Test name: Area under curve (0-6 hr) value in rat at a concentration of 10 mg/kg after peroral administration.
Type: ADME, organism-based
Parameters: time < 6 hr, dose 10 mg/kg, route oral
Test parameters: in vivo, po
Property label: AUC 0-6h (ng·h/mL)

CO/N=C(\c1ccc(Br)cc1)C1CCN(C2(C)CCN(C(=O)c3c(C)cc[n+]([O-])c3C)CC2)CC1 ... 2400

a. CCO/N=C(\c1ccc(Br)cc1)C1CCN(C2(C)CCN(C(=O)c3c(C)ccnc3C)CC2)CC1
b. CCO/N=C(\c1ccc(Br)cc1)C1CCN(C2(C)CCN(C(=O)c3c(C)cc[n+]([O-])c3C)CC2)CC1
c. CCO/N=C(\c1ccc(Br)cc1)C1CCN(C2(C)CCN(C(=O)c3c(C)cccc3C)CC2)CC1
Ask: With regard to AUC 0-6h, arrange the entries in ascending order, please. List the labels in the requested order.
Result: c, a, b

1. CO/N=C(\c1ccc(Br)cc1)C1CCN(C2(C)CCN(C(=O)c3c(N)cccc3Cl)CC2)CC1
2. CO/N=C(\c1ccc(Br)cc1)C1CCN(C2(C)CCN(C(=O)c3c(C)ccnc3C)CC2)CC1
Ask: Please state the entry with greater AUC 0-6h among 1 and 2 . Answer format: the label of the selected item.
Result: 2
(2: 1900 ng·h/mL, 1: 610 ng·h/mL)

a. CO/N=C(\c1ccc(Br)cc1)C1CCN(C2(C)CCN(C(=O)c3c(C)cccc3O)CC2)CC1
b. CO/N=C(/c1ccc(Br)cc1)C1CCN(C2CCN(C(=O)c3c(C)cccc3C)CC2)CC1
Ask: Of the two listed items, a and b , which carries the larger AUC 0-6h figure? Please reply using the label of the selected record.
Result: a

###

Test name: In vivo pharmacokinetic parameter, half-life (t1/2) was measured in monkey after 2 mg/kg iv administration
Test parameters: simiiformes
Property label: half-life (h)
// return numeric value only (unit: h, not printed)

Ask: Dear colleague, I am looking for the recorded half-life of the following compound: `CCO/N=C(\c1ccc(Br)cc1)C1CCN(C2(C)CCN(C(=O)c3c(C)cc[n+]([O-])c3C)CC2)CC1`
Result: 6

###

System: Rattus norvegicus
Test name: Area under curve (0-6 hr) value in rat at a concentration of 10 mg/kg, peroral administration.
Type: ADME, organism-based
Set-up: time < 6 hr, dose 10 mg/kg, route oral
Test parameters: in vivo, po
Property label: AUC 0-6h (ng·h/mL)
Response body: numeric value in ng·h/mL, unit text excluded.

Ask: Value lookup for AUC 0-6h; key = `Cc1cccc(C)c1C(=O)N1CCC(C)(N2CCC(Cc3ccc(Br)cc3)CC2)CC1`
Result: 40
